- Tested on: MDA-MB-435
- Procedure Details: NCI tumour cell line growth inhibition, 48 h
Experimental Readout: log10 of TGI (log10 of the value in µM)

>  <Compound>
O=C(O)c1cc(Cc2ccc(O)c(C(=O)O)c2)ccc1O (tested in a mixture with another compound)

>  <Test Value>
1.20

$$$$
>  <Compound>
O=C(Nc1ccccc1O)c1ccc(CNC(=O)c2sccc2Nc2ccnc(C(F)(F)F)c2)cc1

>  <Test Value>
1.25

$$$$
>  <Compound>
CC1(C)CCC[C@]2(C)[C@@H]1CC[C@@]13O[C@@H]1C1=C(CO)C(=O)OC1=C[C@@H]23

>  <Test Value>
1.79

$$$$
>  <Compound>
COC1CC(CC2CCC(C)C(C(C)C(=O)O)O2)OC2(OC(C)(C3CCC(C)(C4OC(C5OC(O)(CO)C(C)CC5C)CC4C)O3)CC2C)C1C (stereo unspecified)

>  <Test Value>
1.05

$$$$
>  <Compound>
N#Cc1c(N)nc2c(c1-c1ccc(Br)cc1)CSc1ccccc1-2

>  <Test Value>
1.89

$$$$
>  <Compound>
O=[N+]([O-])/C=C\c1c[nH]c2ccc(OCc3ccccc3)cc12

>  <Test Value>
0.67

$$$$
>  <Compound>
NC(=S)N1N=C(c2ccccc2O)CC1c1ccccc1 (stereo unspecified)

>  <Test Value>
1.31

$$$$
>  <Compound>
COc1cc(NCc2ccccc2O)c2ncccc2c1

>  <Test Value>
1.58

$$$$
>  <Compound>
C1=C(c2ccccc2)C(c2ccc(OCCN3CCCCC3)cc2)Oc2ccccc21 (stereo unspecified)

>  <Test Value>
0.48

$$$$
>  <Compound>
CCN(CC)CCOc1ccc2c(c1)C(=O)c1cc(OCCN(CC)CC)ccc1-2

>  <Test Value>
1.44

$$$$
>  <Compound>
C(=C\c1nccc2c1[nH]c1ccccc12)/c1ccccc1

>  <Test Value>
0.26

$$$$

* * *

- Test system: SNB-19 CNS
- Procedure Details: NCI tumour cell line growth inhibition, 48 h
The compounds listed here are annotated with their TGI.

>  <Compound>
CC(=O)Oc1ccc(CO)cc1OC(C)=O

>  <Target System>
SNB-19 CNS

>  <TGI>
> 100 µM

$$$$
>  <Compound>
COc1ccc([C@]23CCN(S(=O)(=O)c4ccc(C)cc4)[C@H]2[C@H](CO)C2(CC3)OCC(C)(C)CO2)cc1OC

>  <Target System>
SNB-19 CNS

>  <TGI>
> 100 µM

$$$$
>  <Compound>
COc1cc(Cl)c2c3c(c(C(=O)c4ccccc4)oc13)CCC2

>  <Target System>
SNB-19 CNS

>  <TGI>
> 100 µM

$$$$
>  <Compound>
COC(OC)C1OC(CO)C(n2cc(F)c(=O)[nH]c2=O)C1O (stereo unspecified)

>  <Target System>
SNB-19 CNS

>  <TGI>
> 100 µM

$$$$
>  <Compound>
Oc1c(I)cc(-c2nc3ccccc3s2)cc1CN(Cc1ccccn1)Cc1ccccn1

>  <Target System>
SNB-19 CNS

>  <TGI>
> 100 µM

$$$$
>  <Compound>
CCCCCCCCCCCCCC(=O)C(C)N (stereo unspecified)

>  <Target System>
SNB-19 CNS

>  <TGI>
30.7 µM

$$$$

* * *

Listed below: log10 TGI values for each entry.
- System: SK-MEL-5 melanoma
- Procedure Details: NCI tumour cell line growth inhibition, 48 h
Experimental Readout: log10 TGI (log10 of the value in µM)

>  <Molecule>
O=S(=O)(O)c1cc(N=[N+]([O-])c2cc(S(=O)(=O)O)c3ccccc3c2)cc2ccccc12

>  <Test Value>
1.52

$$$$
>  <Molecule>
O=c1oc2ccccc2c(O)c1C(c1ccc2c(c1)Cc1ccccc1-2)c1c(O)c2ccccc2oc1=O

>  <Test Value>
1.60

$$$$
>  <Molecule>
O=C(O)c1cc(O)c2c(c1)C([C@@H]1c3cccc(O)c3C(=O)c3c(O)cc(C(=O)O)cc31)c1cccc(O)c1C2=O (stereo not given in full)

>  <Test Value>
1.51

$$$$
>  <Molecule>
C=C1CC2(CCCC3(CC(=C)C(=O)O3)C2(C)C)OC1=O (stereo not given)

>  <Test Value>
1.50

$$$$
>  <Molecule>
O=C(Nc1ccc(Cl)cc1)c1cc(S(=O)(=O)Nc2nnc(-c3ccccc3)c(-c3ccccc3)n2)c(SCc2ccccc2)cc1Cl

>  <Test Value>
1.60

$$$$
>  <Molecule>
COc1ccc(C(=O)N(C(=O)N2CCN(c3ccccc3)CC2)S(=O)(=O)c2ccccc2)cc1

>  <Test Value>
1.45

$$$$
>  <Molecule>
Cc1cc(=O)oc2c3c(ccc12)OC(c1ccc(Br)cc1)CC3=O (stereo not given)

>  <Test Value>
1.39

$$$$
>  <Molecule>
CN(NC(=O)/C(=C\c1ccco1)NC(=O)c1ccccc1)c1cn[nH]c(=O)c1Cl

>  <Test Value>
1.98

$$$$
>  <Molecule>
O=S(=O)(NCCNc1cc(-c2cn(-c3ccccc3)nc2-c2cccc(O)c2)ccn1)c1ccc(Cl)cc1

>  <Test Value>
0.60

$$$$

* * *

- System: M19-MEL melanoma
- Procedure Details: NCI tumour cell line growth inhibition, 48 h
This section presents compounds with their documented TGI values.
Experimental Readout: TGI

>  <Compound>
CC1C=C[C@H](Sc2ccccc2)CC[C@@]1(C)O (stereo not given in full)

>  <Experimental Readout>
TGI

>  <Test Value>
> 100 µM

$$$$
>  <Compound>
Cc1cccc(C)c1NC(=O)CCC(=O)NC(N)=S

>  <Experimental Readout>
TGI

>  <Test Value>
> 100 µM

$$$$
>  <Compound>
COc1ccc(N2C(=O)[C@@H]3[C@H](C2=O)c2[nH]c4ccccc4c2C2CCC(C(C)(C)C)C[C@@H]23)cc1 (stereo not given in full)

>  <Experimental Readout>
TGI

>  <Test Value>
> 100 µM

$$$$
>  <Compound>
Cc1nc(Nc2ccccc2)sc1C(=O)NNc1ccc([N+](=O)[O-])cc1[N+](=O)[O-]

>  <Experimental Readout>
TGI

>  <Test Value>
> 100 µM

$$$$
>  <Compound>
COC1CC(CC2CCC(C)C(C(C)C(=O)O)O2)OC2(OC(C)(C3CCC(C)(C4OC(C5OC(O)(CO)C(C)CC5C)CC4C)O3)CC2C)C1C (stereo not given)

>  <Experimental Readout>
TGI

>  <Test Value>
2.18 µM

$$$$
>  <Compound>
CCC1(N=[N+]=[N-])C(=O)c2ccccc2N(c2ccccc2)C1=O (stereo not given)

>  <Experimental Readout>
TGI

>  <Test Value>
> 100 µM

$$$$
>  <Compound>
Cc1c2n(c3ccccc13)CC1CON(C)C21 (stereo not given)

>  <Experimental Readout>
TGI

>  <Test Value>
> 100 µM

$$$$
>  <Compound>
COc1cc2c([C@@H](OC(=O)c3ccccc3)c3ccc4c(c3)OCO4)nccc2c(OC)c1OC

>  <Experimental Readout>
TGI

>  <Test Value>
> 100 µM

$$$$
>  <Compound>
CCCCCCCCCCCC(=O)c1c(O)cccc1O

>  <Experimental Readout>
TGI

>  <Test Value>
34.5 µM

$$$$
>  <Compound>
CC1CCP(=O)(c2ccccc2)CC1 (stereo not given)

>  <Experimental Readout>
TGI

>  <Test Value>
> 100 µM

$$$$

* * *

- Tested on: A549 NSCLC
- Procedure Details: NCI tumour cell line growth inhibition, 48 h
Entries and their measured GI50 follow.

>  <Compound>
OCC#Cc1ccccc1C#Cc1ccc(C#Cc2ccccc2C#CCO)s1

>  <GI50>
19.1 µM

$$$$
>  <Compound>
C[C@]12C3CC[C@@]4(CO)C[C@]3(CCC1[C@](C)(C(=O)O)CC[C@@H]2O)CC4=O (stereo not given in full)

>  <GI50>
> 100 µM

$$$$
>  <Compound>
CC(=O)/C=C/C1=C(c2cccs2)c2ccccc2CC1

>  <GI50>
37.3 µM

$$$$
>  <Compound>
CC(C)(C)OC(=O)CN1CCc2c(sc3ncnc(N/N=C/c4cccc5ccccc45)c23)C1

>  <GI50>
3.03 µM

$$$$
>  <Compound>
O=S(=O)(NCCNc1cc(-c2cn(-c3ccccc3)nc2-c2cccc(O)c2)ccn1)c1ccc(Cl)cc1

>  <GI50>
3.89 µM

$$$$

* * *

# GI50 per entry
- Test system: M14 melanoma
- Procedure Details: NCI tumour cell line growth inhibition, 48 h
Experimental Readout: GI50

>  <Molecule>
O=C(NNS(=O)(=O)c1ccc(F)cc1)c1cccnc1Nc1ccc(Cl)cc1Cl

>  <Test Value>
46.5 µM

$$$$
>  <Molecule>
Cc1cc(C)n(C(=O)c2nn(-c3ccc(Cl)cc3)cc2O)n1

>  <Test Value>
4.69 µM

$$$$
>  <Molecule>
C=CCC(N[C@H](CO)c1ccccc1)c1cn(S(=O)(=O)c2ccc(C)cc2)c2ccccc12 (some centres undefined)

>  <Test Value>
14.5 µM

$$$$
>  <Molecule>
C/C1=C/C(=O)O[C@@H]2C[C@@H](CC[C@H](C)/C=C\C=C\CC1)O[C@@](OCCc1ccccc1)([C@@H]1CSC(=O)N1)C2

>  <Test Value>
0.204 µM

$$$$
>  <Molecule>
N#C/C(N)=C(\C#N)N=Cc1csc2ccccc12

>  <Test Value>
46.8 µM

$$$$
>  <Molecule>
CS(=O)(=O)CCn1c(=O)c(Oc2ccc(F)cc2F)cc2cnc(NC3CCOCC3)nc21

>  <Test Value>
> 25 µM

$$$$
>  <Molecule>
Oc1c(I)cc(-c2nc3ccccc3s2)cc1CN(Cc1ccccn1)Cc1ccccn1

>  <Test Value>
0.357 µM

$$$$
>  <Molecule>
COc1cc(C2=NN(c3ccc(S(N)(=O)=O)cc3)C(c3ccc(Cl)cc3)C2)cc(OC)c1OC (centres undefined)

>  <Test Value>
4.8 µM

$$$$
>  <Molecule>
O=[N+]([O-])[O-].O=[N+]([O-])[O-].[Au].[Au].c1ccc([P-]c2ccccc2)cc1.c1ccc([P-]c2ccccc2)cc1

>  <Test Value>
22.6 µM

$$$$
>  <Molecule>
CC(=O)/C=C/C1=C(c2cccs2)c2ccccc2CC1

>  <Test Value>
18.8 µM

$$$$
>  <Molecule>
C#Cc1cccc(Oc2ccc(NC(=O)CCl)cc2)c1

>  <Test Value>
72.8 µM

$$$$
>  <Molecule>
C/C1=C\C/C=C(\C)[C@H]2CC(CC/C(C)=C/CC1)[C@](C)(C=O)O2

>  <Test Value>
51.9 µM

$$$$
>  <Molecule>
CC(=O)c1cc2c(c3ccsc13)-c1ccccc1CC2

>  <Test Value>
27.7 µM

$$$$
>  <Molecule>
CCCCCCNc1nc(N2CCOCC2)c2[nH]c(NCCCCCC)nc2n1

>  <Test Value>
1.84 µM

$$$$
